# assayed-system: GST-tagged KRAS-G12V (2-169) (Homo sapiens, UniProt P01116, G12V)
# Sequence (P01116 2-169 isoform P01116-2 G12V): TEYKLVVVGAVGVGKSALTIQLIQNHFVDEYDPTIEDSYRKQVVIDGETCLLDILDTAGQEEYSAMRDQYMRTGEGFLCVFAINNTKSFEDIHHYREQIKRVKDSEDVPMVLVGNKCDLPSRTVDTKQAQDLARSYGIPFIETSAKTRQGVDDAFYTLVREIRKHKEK
# procedure-summary: Nucleotide exchange assay (NEA), SOS-mediated, HTRF, KRAS G12V
# measurement-conditions: Table 4; IC50 extracted at 90 min; 80 nM SOS
pIC50: −log10 of the molar value.
Recorded measurements of pIC50, one per entry

Answered cases to consult:
compound	pIC50
N#Cc1c(N)sc2c1C1(CC2)CN(c2nc(OCC3(CN4CCOCC4)CC3)nc(N3C[C@H]4CC[C@@H](C3)N4)n2)C1	6.00 to 7.00
N#Cc1c(N)sc2c1C1(CC2)CN(c2nc(OC[C@@]34CCCN3C[C@H](F)C4)nc(N(CCO)Cc3cn[nH]c3)n2)C1	7.00 to 8.00

In: May I ask what pIC50 has been recorded for N#Cc1c(N)sc2c1C1(CC2)CN(c2nc(OCC3(CN4CCOCC4)CC3)nc(N3CCCC(O)(CO)C3)n2)C1 (stereo not drawn) ?
Out: 7.00 to 8.00
